ED50 values, listed per item
organism: Cavia porcellus; experiment: Inhibition of AA (arachidonic acid) - induced contraction of GP lung tissue (n=4).; format: functional
measurement name: ED50

smi: COc1ccc2c(c1)c(CC(=O)NN)c(Br)n2Cc1ccccc1
val: 7.32 µM

smi: CCc1c(CC(=O)NN)c2cc(OC)ccc2n1Cc1ccccc1
val: >30 µM

smi: CCc1c(CC(=O)NN)c2cc(OC)ccc2n1Cc1ccccc1-c1ccccc1
val: >30 µM

smi: COc1ccc2c(c1)c(CC(=O)NN)c(C)n2Cc1cccc(OCc2ccccc2)c1
val: >30 µM

smi: COc1ccc2c(c1)c(CC(=O)NN)c(Cl)n2Cc1ccccc1
val: 9.37 µM

smi: COc1ccc2c(c1)c(CC(=O)NN)c(C)n2Cc1cccc(Cl)c1
val: >30 µM

smi: COc1ccc2c(c1)c(CC(=O)NN)c(C)n2Cc1ccccc1-c1ccccc1
val: >10 µM

smi: CCCc1c(CC(=O)NN)c2cc(OC)ccc2n1Cc1ccccc1
val: >30 µM

smi: Cc1c(CC(=O)NN)c2cc(C(=O)O)ccc2n1Cc1cccc(Cl)c1
val: >30 µM

smi: COc1ccc2c(c1)c(CC(N)=O)c(C)n2CC1CCCCC1
val: 25.65 µM

smi: COc1ccc2c(c1)c(CC(=O)NN)cn2Cc1ccccc1
val: >10 µM

smi: CCc1c(CC(N)=O)c2cc(OC)ccc2n1Cc1ccccc1
val: >30 µM

smi: COc1ccc2c(c1)c(CC(=O)NN)c(C)n2Cc1cccc(O)c1
val: >30 µM

smi: Cc1c(CC(N)=O)c2cc(N)ccc2n1Cc1ccccc1
val: 14.5 µM

###

target: Phospholipase A2, membrane associated (Homo sapiens, UniProt P14555); assay: Inhibition of Human Nonpancreatic Secretory Phospholipase A2 through Chromogenic assay
Sequence (P14555 whole entry): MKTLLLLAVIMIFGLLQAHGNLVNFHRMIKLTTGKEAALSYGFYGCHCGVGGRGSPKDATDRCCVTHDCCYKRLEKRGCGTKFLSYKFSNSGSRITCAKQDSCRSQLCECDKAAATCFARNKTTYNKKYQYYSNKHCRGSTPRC
IC50 values, listed per item
measurement name: IC50 (µM)

molecule: COc1ccc2c(c1)c(CC(=N)S)c(C)n2Cc1ccccc1
tested system: Phospholipase A2, membrane associated (Homo sapiens, UniProt P14555)
val: 74.1
--
molecule: COc1ccc2c(c1)c(C(=O)C(N)=O)c(C)n2Cc1ccccc1
tested system: Phospholipase A2, membrane associated (Homo sapiens, UniProt P14555)
val: 1.23
--
molecule: COc1ccc2c(c1)c(CCC(N)=O)c(C)n2Cc1ccccc1
tested system: Phospholipase A2, membrane associated (Homo sapiens, UniProt P14555)
val: 28.1
--
molecule: COc1ccc2c(c1)c(C(C)C(=O)NN)c(C)n2Cc1ccccc1 (stereo not given)
tested system: Phospholipase A2, membrane associated (Homo sapiens, UniProt P14555)
val: 32.6
--
molecule: CCc1c(C(O)C(N)=O)c2c(OC)cccc2n1Cc1ccccc1 (stereo not given)
tested system: Phospholipase A2, membrane associated (Homo sapiens, UniProt P14555)
val: 53

###

pIC50 values, listed per item
molecular target: Phospholipase A2, membrane associated (Homo sapiens, UniProt P14555); test: Inhibition of Human Nonpancreatic Secretory Phospholipase A2 through Chromogenic assay
pIC50: −log10 of the molar value.

compound: COc1ccc2c(c1)c(CC(=O)NN)c(C1CC1)n2Cc1ccccc1
tested system: Phospholipase A2, membrane associated (Homo sapiens, UniProt P14555)
pIC50: 6.41
--
compound: CCCCCCCCCCn1c(C)c(CC(N)=O)c2cc(OC)ccc21
tested system: Phospholipase A2, membrane associated (Homo sapiens, UniProt P14555)
pIC50: 5.02
--
compound: CCc1c(CC(=O)NN)c2cc(OC)ccc2n1Cc1ccccc1-c1ccccc1
tested system: Phospholipase A2, membrane associated (Homo sapiens, UniProt P14555)
pIC50: 5.63
--
compound: COc1ccc2c(c1)c(CC(=N)N)c(C)n2Cc1ccccc1
tested system: Phospholipase A2, membrane associated (Homo sapiens, UniProt P14555)
pIC50: 4.19
--
compound: CCCCCCC(C(=O)NN)c1c(C)n(Cc2ccccc2)c2ccc(OC)cc12 (stereo unspecified)
tested system: Phospholipase A2, membrane associated (Homo sapiens, UniProt P14555)
pIC50: 3.99
--
compound: Cc1c(CC(N)=O)c2cc([N+](=O)[O-])ccc2n1Cc1ccccc1
tested system: Phospholipase A2, membrane associated (Homo sapiens, UniProt P14555)
pIC50: 5.82
--
compound: COc1cccc2c1c(CC(=O)NN)c(C)n2Cc1ccccc1
tested system: Phospholipase A2, membrane associated (Homo sapiens, UniProt P14555)
pIC50: 6.26
--
compound: COc1ccc2c(c1)c(CC(=O)NN)c(SC)n2Cc1ccccc1
tested system: Phospholipase A2, membrane associated (Homo sapiens, UniProt P14555)
pIC50: 6.21
--
compound: CCc1c(C(=O)C(N)=O)c2c([N+](=O)[O-])cccc2n1Cc1ccccc1
tested system: Phospholipase A2, membrane associated (Homo sapiens, UniProt P14555)
pIC50: 4.42
--
compound: COC(=O)Cc1c(C)n(Cc2ccccc2)c2ccc(OC)cc12
tested system: Phospholipase A2, membrane associated (Homo sapiens, UniProt P14555)
pIC50: 3.94
--
compound: CCc1c(C(=O)C(N)=O)c2cc(OC)ccc2n1Cc1ccccc1
tested system: Phospholipase A2, membrane associated (Homo sapiens, UniProt P14555)
pIC50: 5.59
